Tested target: T1, PUF4 RNA-binding domain (Saccharomyces cerevisiae, UniProt P25339 537-888)
T1 sequence: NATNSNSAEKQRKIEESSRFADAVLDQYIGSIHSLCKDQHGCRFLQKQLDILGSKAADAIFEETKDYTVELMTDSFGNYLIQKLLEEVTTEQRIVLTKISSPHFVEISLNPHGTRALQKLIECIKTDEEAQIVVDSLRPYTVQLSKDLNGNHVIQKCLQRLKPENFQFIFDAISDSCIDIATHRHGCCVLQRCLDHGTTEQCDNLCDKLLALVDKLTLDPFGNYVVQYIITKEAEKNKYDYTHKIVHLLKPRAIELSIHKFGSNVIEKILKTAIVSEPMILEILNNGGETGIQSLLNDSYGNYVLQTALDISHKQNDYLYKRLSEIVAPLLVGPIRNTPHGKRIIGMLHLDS
Assay notes: Mg; RNA-MaP; 20 mM Na-HEPES pH 7.4, 30 mM KOAc, 0.75 mM MgCl2, 0.1% Tween-20, 5% glycerol, 0.1 mg/mL BSA, 2 mM DTT; 25 C; 0.0125-409.6 nM protein
Experimental conditions: tags: N-His6-TEV cleaved; C-SNAP kept, Cy3B-labelled; label: tethered on chip by stalled RNA polymerase
pKd: −log10 of the molar value.
Readings of pKd for the listed binders

Binder: Ic_S4_P4E.1_K4.1_C4.1_H4.1_A4.1_[T5G]_[A6T]_[T7C]_F4.1_[T8G]_[A9T]_T4.1 (ssRNA) RNA: UUUGACAACUGAUCGUUCUUUCUUGUAGUCGUUUCUUUCUCGAUCAGUUGUCUUU
Limit sign: =
pKd: 6.21

Binder: UCUCUUGUUAUAUAUUAAAUCUCUU (ssRNA) [Id_ii_S1_P4E.3_K4.2_C4.2_[C-2G]_H4.2_A4.1_F4.1_T4.2_[G10A]_[T11A]]
Limit sign: =
pKd: 7.57

Binder: UCUCUUUCUUGUAUUUUAGCUCUCUU (ssRNA) [Id_iii_S1_P4E.8_K4.4_C4.3_H4.1_A4.2_F4.1_T4.2_[T11C]]
Limit sign: =
pKd: 8.97

Binder: UCUCUUUUUAUAUUGUCUCUU (ssRNA) [Ib_S1_P4E.1_K4.1_C4.1_H4.1_[G2T]_A4.1_F4.1_[A9G]_T4.1]
Limit sign: <
pKd: 5.64

Binder: UCUCUUUAUAUAUUAUUAAAUCUCUU (ssRNA) [Id_ii_S1_P5E.3_K5.2_C5.2_[C-2T]_[T-1A]_H5.2_A5.1_F5.1_T5.2_[T11A]]
Limit sign: =
pKd: 7.59

Binder: UCUCUUGUUGUAUAUAUCUCUCUU (ssRNA) [Id_ii_S1_P3E.2_K3.1_C3.2_[C-2G]_H3.1_A3.1_F3.1_T3.2_[A10C]]
Limit sign: =
pKd: 8.08

Binder: Id_ii_S2_P5E.4_K5.3_C5.2_[C-2A]_[T-1C]_H5.3_A5.1_F5.1_T5.2_[T11C]_[A12C] (ssRNA) RNA: UUUGAUUAAUAUGAUAUCGUUCUUUCUACACACUUAUUACCUUCUUUCUCGAUAUCAUAUUAAUCUUU
Limit sign: <
pKd: 5.64

Binder: UCUCUUUGUAUUCGCUCUCUU (ssRNA) [Ic_S1_P4E.1_K4.1_C4.1_H4.1_A4.1_[A6T]_[T7C]_F4.1_[T8G]_[A9C]_T4.1]
Limit sign: =
pKd: 5.97

Binder: Ie_S4_P3E.2_K3.1_C3.2_H3.1_A3.1_[+6TC]_F3.1_T3.2 (ssRNA) RNA: UUUGACAACUGAUCGUUCUUUCUCUUGUAUAUCUAUAUUCUUUCUCGAUCAGUUGUCUUU
Limit sign: =
pKd: 8.68

Binder: Ie_S2_P5E.1_K5.1_C5.1_H5.1_A5.1_F5.1_[+10TTCCT]_T5.1 (ssRNA) RNA: UUUGAUUAAUAUGAUAUCGUUCUUUCUUGUAUUAUUAUUCCUUUCUUUCUCGAUAUCAUAUUAAUCUUU
Limit sign: =
pKd: 8.74

Binder: UCUCUUUGUAUAUCCCUUAUCUCUU (ssRNA) [Ie_S1_P4E.1_K4.1_C4.1_H4.1_A4.1_[+7CCCT]_F4.1_T4.1]
Limit sign: =
pKd: 7.63

Binder: UCUCUUCUUGUAUAUAAUUCUCUU (ssRNA) [Id_ii_S1_P3E.2_K3.1_C3.2_H3.1_A3.1_F3.1_T3.2_[T9A]_[A10T]]
Limit sign: =
pKd: 8.08

Binder: UCUCUUUGCAUACUAUCUCUU (ssRNA) [Ib_S1_P4E.1_K4.1_C4.1_H4.1_[T3C]_A4.1_[T7C]_F4.1_T4.1]
Limit sign: =
pKd: 6.93
